Entries and their inhibition
TESTED SYSTEM: Mitogen-activated protein kinase 14 (Homo sapiens) (UniProt Q16539)
Sequence (Q16539 whole entry): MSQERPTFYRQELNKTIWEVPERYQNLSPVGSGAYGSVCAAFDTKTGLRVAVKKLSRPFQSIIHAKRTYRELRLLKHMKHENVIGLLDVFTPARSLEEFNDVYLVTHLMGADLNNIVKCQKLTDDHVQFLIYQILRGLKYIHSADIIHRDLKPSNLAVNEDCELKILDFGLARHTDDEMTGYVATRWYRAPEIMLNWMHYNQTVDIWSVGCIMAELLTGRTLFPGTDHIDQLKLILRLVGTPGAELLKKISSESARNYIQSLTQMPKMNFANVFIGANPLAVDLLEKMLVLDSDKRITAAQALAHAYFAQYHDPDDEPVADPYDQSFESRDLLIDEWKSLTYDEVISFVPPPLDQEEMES
ASSAY INFO: Inhibition of p38alpha (unknown origin) at 30 uM by microfluidic mobility shift assay relative to control

# MOLECULE, inhibition (%)
data = [
    ("NC1(Cc2ccccc2)CCN(c2ncnc3[nH]cnc23)CC1", 11),
    ("COC(=O)C1CCC2(CCN(c3ncnc4[nH]cnc34)CC2)NC1 (racemic)", 8),
    ("c1nc(N2CCC3(CCCNC3)CC2)c2nc[nH]c2n1", 0),
    ("c1ccc(CC2CCNC3(CCN(c4ncnc5[nH]cnc45)CC3)C2)cc1 (racemic)", 10),
    ("O=S(=O)(c1cccc2cnccc12)N1CCCC2(CCCNC2)C1 (stereo unspecified)", 7),
    ("OCC1CCC2(CCN(c3ncnc4[nH]cnc34)CC2)NC1 (racemic)", 14),
    ("OC1CCC2(CCN(c3ncnc4[nH]cnc34)CC2)NC1 (racemic)", 3),
    ("c1nc(N2CCC3(CCCN3)CC2)c2nc[nH]c2n1", 2),
    ("c1nc(N2CCC3(CCCCC3)CC2)c2nc[nH]c2n1", 6),
    ("c1nc(N2CCC3(CCCOC3)CC2)c2nc[nH]c2n1", 3),
    ("c1ccc(C2CCNC3(CCN(c4ncnc5[nH]cnc45)CC3)C2)cc1 (racemic)", 0),
]

====

TESTED SYSTEM: RAC-alpha serine/threonine-protein kinase (Homo sapiens)
Sequence (P31749 whole entry): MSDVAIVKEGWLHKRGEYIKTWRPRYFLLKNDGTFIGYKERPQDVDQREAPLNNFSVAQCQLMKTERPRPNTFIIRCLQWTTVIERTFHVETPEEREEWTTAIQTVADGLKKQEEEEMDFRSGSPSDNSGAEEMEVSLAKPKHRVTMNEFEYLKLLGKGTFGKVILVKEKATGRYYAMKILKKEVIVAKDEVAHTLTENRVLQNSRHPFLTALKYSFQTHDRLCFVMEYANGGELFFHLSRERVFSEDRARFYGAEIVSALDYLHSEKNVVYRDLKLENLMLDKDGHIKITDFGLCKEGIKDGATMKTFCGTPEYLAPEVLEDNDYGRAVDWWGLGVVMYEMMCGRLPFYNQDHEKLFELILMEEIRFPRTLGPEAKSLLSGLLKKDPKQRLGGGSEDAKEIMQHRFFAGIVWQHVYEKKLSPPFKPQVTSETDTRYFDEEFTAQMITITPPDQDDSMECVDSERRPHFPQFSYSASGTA
ASSAY INFO: Inhibition of AKT1 (unknown origin) at 30 uM by microfluidic mobility shift assay relative to control
VALUE KIND: inhibition (%)

# MOLECULE, VALUE UNIT, MEAS VALUE
rows = [
    ("c1ccc(C2CCC3(CCN(c4ncnc5[nH]cnc45)CC3)NC2)cc1 (stereo unspecified)", "%", 85),
    ("O=S(=O)(c1cccc2cnccc12)N1CCC2(CCCN2)CC1", "%", 28),
    ("c1nc(N2CCCC23CCNCC3)c2nc[nH]c2n1", "%", 12),
    ("O=S(=O)(c1cccc2cnccc12)N1CCC2(CCNC2)CC1", "%", 18),
    ("c1ccc(C2CCNC3(CCN(c4ncnc5[nH]cnc45)CC3)C2)cc1 (racemic)", "%", 99),
    ("c1nc(N2CCCC3(CCCNC3)C2)c2nc[nH]c2n1 (stereo unspecified)", "%", 77),
    ("c1ccc(CC2CCNC3(CCN(c4ncnc5[nH]cnc45)CC3)C2)cc1 (racemic)", "%", 101),
    ("CNC(=O)C1CCC2(CCN(c3ncnc4[nH]cnc34)CC2)NC1 (racemic)", "%", 83),
    ("OCC1CCC2(CCN(c3ncnc4[nH]cnc34)CC2)NC1 (racemic)", "%", 80),
    ("O=C(C1CCC2(CCN(c3ncnc4[nH]cnc34)CC2)NC1)N1CCOCC1 (racemic)", "%", 66),
    ("c1ccc(CC2CCC3(CCN(c4ncnc5[nH]cnc45)CC3)NC2)cc1 (racemic)", "%", 80),
]

====

Measured inhibition by item
TESTED SYSTEM: MAP kinase-activated protein kinase 2 (Homo sapiens)
ASSAY INFO: Inhibition of MK2 (unknown origin) at 30 uM by microfluidic mobility shift assay relative to control

# COMPOUND, VALUE UNIT, inhibition
data = [
    ("O=S(=O)(c1cccc2cnccc12)N1CCC2(CCCNC2)CC1", "%", 8),
    ("OC1CCC2(CCN(c3ncnc4[nH]cnc34)CC2)NC1 (racemic)", "%", 11),
    ("c1nc(N2CCCC23CCNCC3)c2nc[nH]c2n1", "%", 17),
    ("c1nc(N2CCC3(CCCNC3)CC2)c2nc[nH]c2n1", "%", 74),
    ("c1ccc(CC2CCNC3(CCN(c4ncnc5[nH]cnc45)CC3)C2)cc1 (racemic)", "%", 3),
]

====

TESTED SYSTEM: Hepatocyte growth factor receptor (Homo sapiens, UniProt P08581)
Sequence (P08581 whole entry): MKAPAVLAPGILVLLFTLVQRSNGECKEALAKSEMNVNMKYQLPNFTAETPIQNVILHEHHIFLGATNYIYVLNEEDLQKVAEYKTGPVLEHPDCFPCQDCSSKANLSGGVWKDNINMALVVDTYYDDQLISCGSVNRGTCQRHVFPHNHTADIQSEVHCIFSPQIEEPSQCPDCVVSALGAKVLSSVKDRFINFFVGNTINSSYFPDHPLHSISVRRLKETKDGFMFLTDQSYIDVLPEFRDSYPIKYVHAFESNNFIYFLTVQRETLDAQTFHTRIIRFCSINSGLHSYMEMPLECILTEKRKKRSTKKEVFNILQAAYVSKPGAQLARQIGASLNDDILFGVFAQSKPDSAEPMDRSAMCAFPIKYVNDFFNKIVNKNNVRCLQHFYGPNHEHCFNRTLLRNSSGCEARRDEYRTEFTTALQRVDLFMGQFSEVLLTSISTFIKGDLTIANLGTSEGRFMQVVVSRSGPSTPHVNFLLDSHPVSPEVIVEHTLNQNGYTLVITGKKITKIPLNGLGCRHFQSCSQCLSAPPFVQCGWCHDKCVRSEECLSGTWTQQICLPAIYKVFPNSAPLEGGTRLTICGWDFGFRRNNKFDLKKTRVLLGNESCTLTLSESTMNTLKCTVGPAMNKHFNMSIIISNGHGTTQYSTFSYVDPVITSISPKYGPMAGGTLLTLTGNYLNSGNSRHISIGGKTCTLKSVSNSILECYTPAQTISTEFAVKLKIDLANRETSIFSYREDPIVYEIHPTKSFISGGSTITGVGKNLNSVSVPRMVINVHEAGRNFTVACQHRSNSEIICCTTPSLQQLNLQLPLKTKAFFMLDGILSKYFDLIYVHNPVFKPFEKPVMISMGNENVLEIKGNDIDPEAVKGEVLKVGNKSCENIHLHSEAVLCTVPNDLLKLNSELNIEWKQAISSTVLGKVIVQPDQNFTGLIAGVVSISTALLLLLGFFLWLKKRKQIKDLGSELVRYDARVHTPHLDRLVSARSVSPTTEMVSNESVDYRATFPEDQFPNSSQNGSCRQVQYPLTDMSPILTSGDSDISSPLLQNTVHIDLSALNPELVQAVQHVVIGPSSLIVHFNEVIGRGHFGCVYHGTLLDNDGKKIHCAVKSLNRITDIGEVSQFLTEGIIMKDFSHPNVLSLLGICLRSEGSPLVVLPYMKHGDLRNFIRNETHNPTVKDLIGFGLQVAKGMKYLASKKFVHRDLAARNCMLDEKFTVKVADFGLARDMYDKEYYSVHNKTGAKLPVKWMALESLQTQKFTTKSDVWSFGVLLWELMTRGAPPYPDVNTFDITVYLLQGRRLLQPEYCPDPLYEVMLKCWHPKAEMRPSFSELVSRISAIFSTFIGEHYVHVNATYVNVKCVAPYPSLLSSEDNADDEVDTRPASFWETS
VALUE KIND: IC50 (µM)

# ENTRY SMILES, TESTED SYSTEM, MEAS VALUE
rows = [
    ("c1nc(N2CCC3(CCCNC3)CC2)c2nc[nH]c2n1", "Hepatocyte growth factor receptor (Homo sapiens, UniProt P08581)", 183),
]

====

TESTED SYSTEM: Protein kinase C zeta type (Homo sapiens, UniProt Q05513)
Sequence (Q05513 whole entry): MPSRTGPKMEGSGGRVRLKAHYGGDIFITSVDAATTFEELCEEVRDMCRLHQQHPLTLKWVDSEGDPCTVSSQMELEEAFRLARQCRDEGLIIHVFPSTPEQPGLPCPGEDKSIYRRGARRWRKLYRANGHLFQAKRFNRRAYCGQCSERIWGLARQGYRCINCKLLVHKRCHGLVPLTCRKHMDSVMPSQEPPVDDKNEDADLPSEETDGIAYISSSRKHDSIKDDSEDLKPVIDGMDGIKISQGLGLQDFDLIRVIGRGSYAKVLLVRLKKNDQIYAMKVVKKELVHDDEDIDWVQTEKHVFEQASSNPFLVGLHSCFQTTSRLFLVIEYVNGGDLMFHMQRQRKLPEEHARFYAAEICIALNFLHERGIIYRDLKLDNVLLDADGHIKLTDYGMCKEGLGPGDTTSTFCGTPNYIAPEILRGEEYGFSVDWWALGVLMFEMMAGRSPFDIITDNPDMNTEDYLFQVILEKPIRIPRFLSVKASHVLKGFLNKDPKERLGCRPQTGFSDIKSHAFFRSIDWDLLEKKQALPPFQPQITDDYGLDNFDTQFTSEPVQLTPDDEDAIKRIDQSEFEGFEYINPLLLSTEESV
pIC50: −log10 of the molar value.

# ENTRY SMILES, pIC50
records = [
    ("c1nc(N2CCC3(CCCNC3)CC2)c2nc[nH]c2n1", 4.13),
]

====

TESTED SYSTEM: Aurora kinase A (Homo sapiens, UniProt O14965)
Sequence (O14965 whole entry): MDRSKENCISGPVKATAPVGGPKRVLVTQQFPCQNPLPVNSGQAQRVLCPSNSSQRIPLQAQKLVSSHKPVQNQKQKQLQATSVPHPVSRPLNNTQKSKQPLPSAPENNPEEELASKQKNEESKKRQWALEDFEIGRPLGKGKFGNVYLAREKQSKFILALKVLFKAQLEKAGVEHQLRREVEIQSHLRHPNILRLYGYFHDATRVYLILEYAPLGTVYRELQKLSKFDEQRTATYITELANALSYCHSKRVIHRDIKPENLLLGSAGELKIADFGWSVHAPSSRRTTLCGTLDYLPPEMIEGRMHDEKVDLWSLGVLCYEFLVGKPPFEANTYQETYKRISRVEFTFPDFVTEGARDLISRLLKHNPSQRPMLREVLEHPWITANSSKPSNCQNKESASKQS
Let's look at some compounds and their measured IC50.

# COMPOUND, IC50 / µM
data = [
    ("c1nc(N2CCC3(CCCNC3)CC2)c2nc[nH]c2n1", 9.8),
    ("c1nc(N2CCC3(CCCCN3)CC2)c2nc[nH]c2n1", 7.8),
    ("O=C(O)C1CCC2(CCN(c3ncnc4[nH]cnc34)CC2)NC1 (racemic)", 6.1),
]

====

TESTED SYSTEM: Ribosomal protein S6 kinase alpha-1 (Homo sapiens)
Sequence (Q15418 whole entry): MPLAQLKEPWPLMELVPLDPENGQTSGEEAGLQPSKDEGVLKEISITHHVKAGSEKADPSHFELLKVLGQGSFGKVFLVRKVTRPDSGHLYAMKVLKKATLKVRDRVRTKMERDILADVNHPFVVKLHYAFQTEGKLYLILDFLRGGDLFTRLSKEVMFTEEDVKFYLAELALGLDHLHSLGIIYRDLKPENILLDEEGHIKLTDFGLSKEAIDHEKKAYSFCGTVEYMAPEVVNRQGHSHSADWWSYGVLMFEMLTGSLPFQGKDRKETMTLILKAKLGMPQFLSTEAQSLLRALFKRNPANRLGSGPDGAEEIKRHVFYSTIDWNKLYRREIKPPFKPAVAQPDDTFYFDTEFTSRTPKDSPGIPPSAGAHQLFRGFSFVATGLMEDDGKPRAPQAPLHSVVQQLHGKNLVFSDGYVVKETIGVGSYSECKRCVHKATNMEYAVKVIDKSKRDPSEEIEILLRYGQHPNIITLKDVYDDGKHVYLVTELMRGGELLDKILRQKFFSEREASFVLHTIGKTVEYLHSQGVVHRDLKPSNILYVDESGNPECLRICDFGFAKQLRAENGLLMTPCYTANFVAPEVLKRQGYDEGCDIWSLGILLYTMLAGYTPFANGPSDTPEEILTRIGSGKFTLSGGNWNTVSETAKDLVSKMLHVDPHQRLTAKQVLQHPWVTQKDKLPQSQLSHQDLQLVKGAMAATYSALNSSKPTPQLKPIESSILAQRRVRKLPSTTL

# ENTRY SMILES, TESTED SYSTEM, IC50 (µM)
rows = [
    ("c1nc(N2CCC3(CCCCN3)CC2)c2nc[nH]c2n1", "Ribosomal protein S6 kinase alpha-1 (Homo sapiens)", 63),
]

====

Entries and their inhibition values follow.
TESTED SYSTEM: Protein kinase C (PKC) (Homo sapiens) (UniProt O94806+P41743+P17252+P05129+Q05655+P05771+Q05513+Q02156+P24723+Q15139+Q04759)
ASSAY INFO: Inhibition of PKC (unknown origin) at 30 uM by microfluidic mobility shift assay relative to control
VALUE KIND: inhibition (%)

# COMPOUND, VALUE KIND, MEAS VALUE
measured = [
    ("O=S(=O)(c1cccc2cnccc12)N1CCCC2(CCCNC2)C1 (stereo unspecified)", "inhibition", 0),
    ("c1nc(N2CCC3(CCCN3)CC2)c2nc[nH]c2n1", "inhibition", 0),
    ("c1nc(N2CCC3(CCCOC3)CC2)c2nc[nH]c2n1", "inhibition", 7),
    ("O=S(=O)(c1cccc2cnccc12)N1CCC2(CCNC2)CC1", "inhibition", 0),
    ("c1nc(N2CCCC23CCNCC3)c2nc[nH]c2n1", "inhibition", 0),
    ("c1ccc(CC2CCC3(CCN(c4ncnc5[nH]cnc45)CC3)NC2)cc1 (racemic)", "inhibition", 1),
    ("c1nc(N2CCC3(CCCNC3)CC2)c2nc[nH]c2n1", "inhibition", 41),
    ("c1ccc(C2CCNC3(CCN(c4ncnc5[nH]cnc45)CC3)C2)cc1 (racemic)", "inhibition", 0),
    ("OC1CCC2(CCN(c3ncnc4[nH]cnc34)CC2)NC1 (racemic)", "inhibition", 0),
    ("O=S(=O)(c1cccc2cnccc12)N1CCCC12CCNCC2", "inhibition", 5),
    ("OCC1CCC2(CCN(c3ncnc4[nH]cnc34)CC2)NC1 (racemic)", "inhibition", 0),
]

====

Each entry below carries its recorded inhibition.
TESTED SYSTEM: Protein kinase C (PKC) (Homo sapiens) (UniProt O94806+P41743+P17252+P05129+Q05655+P05771+Q05513+Q02156+P24723+Q15139+Q04759)
ASSAY INFO: Inhibition of PKC (unknown origin) at 30 uM by microfluidic mobility shift assay relative to control

# COMPOUND, inhibition / %
records = [
    ("c1nc(N2CCC3(CCCCC3)CC2)c2nc[nH]c2n1", 2),
    ("O=S(=O)(c1cccc2cnccc12)N1CCC2(CCCN2)CC1", 22),
    ("c1nc(N2CCCC3(CCCNC3)C2)c2nc[nH]c2n1 (configuration not stated)", 3),
    ("c1nc(N2CCCC3(CCNCC3)C2)c2nc[nH]c2n1", 21),
    ("NC1(Cc2ccccc2)CCN(S(=O)(=O)c2cccc3cnccc23)CC1", 12),
    ("O=C(C1CCC2(CCN(c3ncnc4[nH]cnc34)CC2)NC1)N1CCOCC1 (racemic)", 18),
    ("c1nc(N2CCC3(CCNC3)CC2)c2nc[nH]c2n1", 26),
    ("CN(C)C(=O)C1CCC2(CCN(c3ncnc4[nH]cnc34)CC2)NC1 (racemic)", 6),
    ("c1ccc(C2CCC3(CCN(c4ncnc5[nH]cnc45)CC3)NC2)cc1 (configuration not stated)", 0),
    ("O=S(=O)(c1cccc2cnccc12)N1CCC2(CCCCN2)CC1", 0),
    ("COC(=O)C1CCC2(CCN(c3ncnc4[nH]cnc34)CC2)NC1 (racemic)", 0),
    ("c1ccc(CC2CCNC3(CCN(c4ncnc5[nH]cnc45)CC3)C2)cc1 (racemic)", 0),
]
